Ref: ChEMBL document CHEMBL3433997

Molecular target: Glucose transporter (Leishmania mexicana)
Assay: ST_JUDE_LEISH: Cytotoxicity at 2uM final concentration against transgenic Leishmania Mexicana promastigotes LmGT2 that are glucose transport deficient and complemented with the L. Mexicana glucose transporter 2. Activity is measured by DNA content using SYBR green in vitro
Type: functional
Items are presented alongside their recorded inhibition.
Endpoint label: inhibition (%)

• COc1ccccc1C1CCN(C2CCC(NC(=O)/C=C/c3ccc4c(c3)OC(F)(F)O4)CC2)CC1 (stereo not drawn) = 1.28
• CC(C)(C)c1ccc(-c2ccccc2CNC(=O)c2cccc(O)c2)cc1 = 7.1
• O=S(=O)(NCCN1CCCC1)c1ccc(-c2cccc(CNCc3ccc(F)cc3)c2)s1 = -1.98

====

Target: Glucose transporter (Leishmania mexicana)
Test: ST_JUDE_LEISH: Cytotoxicity at 2uM final concentration against transgenic Leishmania Mexicana promastigotes LmGT2 that are glucose transport deficient and complemented with the L. Mexicana glucose transporter 2. Activity is measured by DNA content using SYBR green in vitro
Type: functional
Items are presented alongside their recorded inhibition.
Endpoint label: inhibition (%)

• COc1cc2nc(N3CCN(c4cc(C)ccc4C)CC3)nc(N)c2cc1OC = 0.51
• O=C(Nc1ccccc1)Nc1ccc(-c2cccc(-c3nc4cc(C(F)(F)F)ccc4[nH]3)c2)cc1 = 2.05
• NC(=O)C1CCN(Cc2ccc(-c3ccc(-c4nc5cc(C(F)(F)F)ccc5[nH]4)s3)cc2)CC1 = 4.69
• CCCC(C)NC[C@@H](O)[C@H](Cc1ccccc1)NC(=O)c1cc(C2CCCC2)cc(N2CCCCS2(=O)=O)c1 (some centres undefined) = 2.98
• COc1cc(C)nc2ccc(NC(=O)Nc3ccc([N+](=O)[O-])cc3C)cc12 = 3.97
• COc1cccc2[nH]c(NCCCNCc3cc(Br)cc(Br)c3)nc12 = 2.63
• N#Cc1ccc(-c2nc3c(N4CCCC4)cccc3n2CCNCc2ccccc2)cc1 = 11.8
• Cc1cc(N[C@@H](Cc2ccccc2)C(=O)NCCOc2ccccc2)nc(NCCOc2ccccc2)n1 = 2.71
• Cc1cc(NC2CCN(CC3CCCCC3)C2)nc(Nc2ccc(Br)cc2)n1 (centres undefined) = 0.66

====

Target: Hexose transporter 1 (Plasmodium falciparum) (UniProt O97467)
Assay: ST_JUDE_LEISH: Cytotoxicity at 2uM final concentration against transgenic Leishmania Mexicana promastigotes LmPfHT that are glucose transport deficient and complemented with the Plasmodium falciparum hexose transporter. Activity is measured by DNA content using SYBR green in vitro
Type: functional
Endpoint label: inhibition (%)

* COc1ccc(C(F)(F)F)cc1N1CCN(CCCCNC(=O)c2ccc(NC(=O)c3ccc(Cl)cc3)cc2)CC1 | 1.22
* COc1ccc(-c2ccc(NC(=O)c3cccc(F)c3)cc2)cc1CNC(C)C | -0.6
* OC(CNCc1ccccc1OCc1ccccc1)c1cccc(Cl)c1 (stereo not given) | 4.24
* O=C(Nc1ccc(-c2nc3ccccc3[nH]2)cc1)c1ccc(S(=O)(=O)N2CCCCCC2)cc1 | 2.45
* Cc1noc(C)c1-c1cccc(C(=O)NC2CCN(CCNC(=O)C(c3ccccc3)c3ccccc3)CC2)c1 | 1.09

====

Items are presented alongside their recorded inhibition.
Biological target: Glucose transporter (Leishmania mexicana) (UniProt O61059)
Assay: ST_JUDE_LEISH: Cytotoxicity at 2uM final concentration against transgenic Leishmania Mexicana promastigotes LmGT2 that are glucose transport deficient and complemented with the L. Mexicana glucose transporter 2. Activity is measured by DNA content using SYBR green in vitro
Format: functional
Endpoint label: inhibition (%)

- O=S(=O)(c1ccc(NC(S)=NN=Cc2ccccn2)cc1)N1CCCCC1: 5.11
- c1cc(CN2CCc3ccccc3CC2)cc(-c2c[nH]c3nc(NC4CCCC4)ncc23)c1: 0.91
- Cc1c(CNCCCNc2nc3cscc3[nH]2)sc(C(F)F)c1Br: 2.43
- FC(F)(F)c1ccc2[nH]c(-c3ccc(-c4cccc(CNCc5cnn(-c6ccccc6)n5)c4)cc3)nc2c1: -0.02
- O=C(NCCN1CCCCC1)c1cc2cc(-c3ccccc3)ccc2n1S(=O)(=O)c1ccccc1: 55.4
- CCOC(=O)c1c(CNc2ccncc2)n(C)c2cc(Br)c(OC(C)=O)cc12: 1.88
- CS(=O)(=O)c1cc2c(Nc3ccc(N4CCOCC4)cc3)c(C(N)=O)cnc2cc1Br: 3.69
- CC(Oc1ccc(Cl)cc1Cl)c1nc(-c2ccc(NC(=O)c3ccco3)cc2)no1 (stereo unspecified): -0.2
- N#Cc1ccc(C=NNc2nc3ccccc3[nH]2)cc1: -0.11
- O=c1nc(NCCCCCN2CCC(c3c[nH]c4ccccc34)CC2)[nH]cc1Cc1ccc(Cl)c(Cl)c1: 2.08
- Cc1[nH]c(C)c(-c2ccc(OCc3cc(F)cc(F)c3)nc2)c(=O)c1Cl: 2.08
- O=C(NCC1CCN(CC2CCCCC2)C1)c1cc(-c2cccc(C(F)(F)F)c2)cs1 (stereo unspecified): -2.1
- Cc1cc(NC(=O)Nc2ccc(Oc3ccccc3)cc2)c2ccccc2n1: -0.34
- CCn1cc2c3c(cc(C(=O)N[C@@H](Cc4ccccc4)[C@H](O)CNC4CCOCC4)cc31)N(C)S(=O)(=O)CC2: 4.85
- CN(C)CCN(Cc1ccccc1-c1ccc(CNCCc2ccccc2)cc1)C(=O)c1ccccc1: 3.1
- O=C(/C=C/c1ccc(Cl)c(Cl)c1)N1CCCC(CCCN2CCC(c3c[nH]c4ccccc34)CC2)C1 (stereo unspecified): -0.35

====

Target: Glucose transporter (Leishmania mexicana) (UniProt O61059)
Assay: ST_JUDE_LEISH: Cytotoxicity at 2uM final concentration against transgenic Leishmania Mexicana promastigotes LmGT2 that are glucose transport deficient and complemented with the L. Mexicana glucose transporter 2. Activity is measured by DNA content using SYBR green in vitro
Format: functional
Endpoint label: inhibition (%)

* CN1CCN(CCCN(Cc2cccc(-c3ccc(CNCc4ccc5c(c4)OCO5)cc3)c2)C(=O)Nc2ccccc2)CC1 | 1.33
* CCNc1cc(C)nc(Nc2ccc(NC(=O)c3ccco3)cc2)n1 | -0.01
* CCOc1cc2c(cc1OCC)C(c1ccc(O)c(Cl)c1)NCC2 (stereo not given) | 10.3
* Nc1c(Cl)cc(C(O)CNCCCCCCOCCC=C2CCOCC2)cc1Cl (stereo not given) | -1.31
* O=c1c(NCCCN(Cc2ccc(F)cc2)c2ccccn2)c(NCc2ccncc2)c1=O | 5.17

====

Molecular target: Hexose transporter 1 (Plasmodium falciparum)
Experiment: ST_JUDE_LEISH: Cytotoxicity at 2uM final concentration against transgenic Leishmania Mexicana promastigotes LmPfHT that are glucose transport deficient and complemented with the Plasmodium falciparum hexose transporter. Activity is measured by DNA content using SYBR green in vitro
Format: functional
Endpoint label: inhibition (%)

• CCc1cn2c3c(cc(C(=O)N[C@@H](Cc4ccccc4)[C@H](O)CNCc4ccccc4)cc13)N(C)S(=O)(=O)CC2 = -0.74
• Cc1cc(N[C@@H](CC(C)C)C(=O)NCCOc2ccccc2)nc(NCCc2ccc(F)cc2)n1 = 2.57
• CN1CCN(c2ccnc3ccc(NC(=O)N(C)c4ccc(Cl)c(Cl)c4)cc23)CC1 = 0.31
• CCOC(=O)C(C)(C)Oc1ccc(C(=C2CC(C)(C)CC(C)(C)C2)c2ccc(O)cc2)cc1 = 2.31
• O=C(/C=C/c1ccc(Cl)cc1)NCCCCCN1CCC(C(=O)Nc2ccc(Cl)c(Cl)c2)CC1 = -2.11
• O=C(NC1CCN(CCCc2ccccc2)CC1)c1ccc(-c2cccc(C(F)(F)F)c2)s1 = 1.23
• CCCCN(CCCC)CCCN(CCCN(CCCC)CCCC)c1cc(C)nc(Nc2ccc3cc(Br)ccc3c2)n1 = 10.1
• O=C(Nc1ccc(Cl)c(-c2nc3ccccc3[nH]2)c1)c1ccc(-c2ccc(Cl)cc2)o1 = 4.17
• COc1cc(NC(=O)Nc2ccc(Br)cc2C(=O)Nc2ccc(Br)cc2)cc(OC)c1OC = 4.2

====

Target: Hexose transporter 1 (Plasmodium falciparum)
Assay: ST_JUDE_LEISH: Cytotoxicity at 2uM final concentration against transgenic Leishmania Mexicana promastigotes LmPfHT that are glucose transport deficient and complemented with the Plasmodium falciparum hexose transporter. Activity is measured by DNA content using SYBR green in vitro
Type: functional
Endpoint label: inhibition (%)

• COc1ccc(C23Oc4cc(OC)cc(OC)c4C2(O)C2(CC3c3ccccc3)SCCCS2)cc1 (stereo unspecified) = -0.16
• Fc1ccc2[nH]c(-c3ccc(-c4ccc(CNCCc5cccnc5)cc4)s3)nc2c1 = 3.19
• Clc1ccc(CNc2ccnc(NCc3cccnc3N3CCCC3)n2)c(Cl)c1 = 7.88
• COc1ccccc1-c1ccc(C(=O)NCC2CCCN(Cc3cccc(C(F)(F)F)c3)C2)s1 (stereo unspecified) = 8.99
• COc1ccc2nccc([C@@H](O)CN3CCC(NC(=O)[C@@H]4Cc5ccccc5CN4C(=O)OC(C)(C)C)CC3)c2c1 = 6.18
• Cn1nccc1C(=O)NCCNCc1cccc(-c2csc(-c3nc4ccccc4[nH]3)c2)c1 = 8.22
• CC(C)(C)COC(=O)c1ccc(NC(=O)N[C@@H](Cc2ccc(O)cc2)C(=O)NC2CCN(Cc3ccc(O)cc3)C2)cc1 (stereo partly specified) = -2.38
• O=C(Nc1ccc(N2CCCN(Cc3cccc(F)c3)CC2)cc1)c1cccs1 = -0.87
• c1cncc(CCNCc2cccc(-c3ccc(-c4nc5ccccc5[nH]4)s3)c2)c1 = 7.19
• CC(C)[C@H](NC(=O)c1c(F)cccc1F)C(=O)Nc1ccc(Cc2nc3ccccc3s2)cc1 = 4.54
• CCCCCCCNc1cc(C)nc2ccc(OC)cc12 = 9.23
